Reference for the values: patent US20260258084A1

assayProtocol: Solubility testing of peptides at different pH
Assay type: physicochemical
condition: 50 mM HCl buffer; 50 mM HCl pH 1.2; target concentration 1 mg/ml; 2 hours agitation; read-out: Solubility Buffer pH 1.2
Starred links: 1 amine or outer side, 2 acyl side, 3 side chain; linkers in the order of their positions; H or OH if unused. Positions of bridges follow the written chain, without caps; N, C: chain ends. Non-standard residues stand in square brackets, D forms with d. Residues, ends and D or L forms follow the SMILES beside them. *: point of attachment. X3 = CN(CCCCC(=O)N[C@@H](CS[*:2])C(=O)[*:1])[*:3]; Trp(7-Me) = Cc1cccc2c(C[C@H](N)C(=O)O)c[nH]c12; 2Nal = N[C@@H](Cc1ccc2ccccc2c1)C(=O)O; 3Pal = N[C@@H](Cc1cccnc1)C(=O)O; Me2NCH2CH2 = CN(C)CC*; Aib = CC(C)(N)C(=O)O; Ava = NCCCCC(=O)O
quantityMeasured: solubility at 2 h

compound	result
CC(=O)NCCCC[C@@H]1NC(=O)[C@H](Cc2c[nH]c3c(C)cccc23)NC(=O)[C@@H](NC(C)=O)CCCCNC(=O)[C@@H]2CSSC[C@H](NC1=O)C(=O)N[C@@H](Cc1ccc(OCCN(C)C)cc1)C(=O)N[C@@H](Cc1ccc3ccccc3c1)C(=O)NC(C)(C)C(=O)N[C@H](C(=O)N[C@@H](CC(N)=O)C(=O)N[C@@H](Cc1c[nH]cn1)C(N)=O)CCC(=O)N(C)CCCCC(=O)N2 [compound 60] (Ac-K[Trp(7-Me)]K(Ac)CY(Me2NCH2CH2)[2Nal][Aib]ENH-NH2; linker 1-4-8 via X3)	≥ 1020 µg/mL

Any idea what its solubility at 2 h is? The compound is CC[C@H](C)[C@H](NC(=O)[C@H](Cc1cccnc1)NC(=O)[C@H](CC(N)=O)NC(=O)[C@@H]1CCC(=O)NCCCCC(=O)N[C@H]2CSSC[C@H](NC(=O)[C@H](CCCCNC(C)=O)NC(=O)[C@H](Cc3c[nH]c4ccccc34)NC(=O)[C@H]([C@@H](C)O)NC(=O)[C@H](CC(N)=O)NC2=O)C(=O)N[C@@H](Cc2ccc(OCCN(C)C)cc2)C(=O)N[C@@H](Cc2ccc3ccccc3c2)C(=O)NC(C)(C)C(=O)N1)C(N)=O [compound 37] ([Ava]CNTWK(Ac)CY(Me2NCH2CH2)[2Nal][Aib]EN[3Pal]I-NH2; disulfide 2-7; lactam N-11) ≥ 890 µg/mL

* * *

Tested on: Pancreatin
assayProtocol: Protease stability in simulated intestinal fluid (Pancreatin-SIF, FaSSIF)
Format: in vitro ADME
condition: 120 min, 1 μM peptide, 37° C., read-out: FaSSIF 120 (min), remaining percent of peptide
Starred links: 1 amine or outer side, 2 acyl side, 3 side chain; linkers in the order of their positions; H or OH if unused. Positions of bridges follow the written chain, without caps; N, C: chain ends. Non-standard residues stand in square brackets, D forms with d. Residues, ends and D or L forms follow the SMILES beside them. *: point of attachment. X5 = CN(C(=O)CCC(=O)[*:3])[C@@H](CS[*:2])C(=O)[*:1]; X6 = O=C(CCC(=O)[*:3])N[C@@H](CS[*:2])C(=O)[*:1]; Trp(7-Me) = Cc1cccc2c(C[C@H](N)C(=O)O)c[nH]c12; 2Nal = N[C@@H](Cc1ccc2ccccc2c1)C(=O)O; 3Pal = N[C@@H](Cc1cccnc1)C(=O)O; Lys(Me) = CNCCCC[C@H](N)C(=O)O; αMeL = CC(C)C[C@](C)(N)C(=O)O; Thp = NC1(C(=O)O)CCOCC1; Me2NCH2CH2 = CN(C)CC*; Aib = CC(C)(N)C(=O)O; Ahx = NCCCCCC(=O)O; Ava = NCCCCC(=O)O; Sar = CNCC(=O)O
# maps each entry to its remaining at 2 h, 1 µM
// note: answer is a bare numeric in %

The cases that follow already have their remaining at 2 h, 1 µM on record.
molecule	quantityMeasured	unitsSymbol	number
CC(=O)NCCCC[C@@H]1NC(=O)[C@H](Cc2c[nH]c3c(C)cccc23)NC(=O)[C@H]([C@@H](C)O)NC(=O)[C@H](CC(N)=O)NC(=O)[C@@H]2CSSC[C@H](NC1=O)C(=O)N[C@@H](Cc1ccc(OCCN(C)C)cc1)C(=O)N[C@@H](Cc1ccc3ccccc3c1)C(=O)NC1(CCOCC1)C(=O)N[C@H](C(=O)N[C@@H](CO)C(=O)N[C@@H](Cc1cccnc1)C(=O)N(C)CC(N)=O)CCC(=O)NCCCCC(=O)N2 [compound 56] ([Ava]CNT[Trp(7-Me)]K(Ac)CY(Me2NCH2CH2)[2Nal][Thp]ES[3Pal][Sar]-NH2; disulfide 2-7; lactam N-11)	remaining at 2 h, 1 µM	%	76
CC(=O)NCCCC[C@@H]1NC(=O)[C@H](Cc2c[nH]c3c(C)cccc23)NC(=O)[C@@H](NC(C)=O)CCCCNC(=O)[C@@H]2CSSC[C@H](NC1=O)C(=O)N[C@@H](Cc1ccc(OCCN(C)C)cc1)C(=O)N[C@@H](Cc1ccc3ccccc3c1)C(=O)NC1(CCOCC1)C(=O)N[C@H](C(=O)N[C@@H](CC(N)=O)C(=O)N[C@@H](Cc1cccnc1)C(=O)N(C)CC(N)=O)CCCCN(C)CCCCN2C	remaining at 2 h, 1 µM	%	101
Cc1cccc2c(C[C@@H]3NC(=O)[C@H]([C@@H](C)O)NC(=O)[C@H](CC(N)=O)NC(=O)[C@@H]4CSSC[C@H](NC(=O)[C@H](CCC(N)=O)NC3=O)C(=O)N[C@@H](Cc3ccc(OCCN(C)C)cc3)C(=O)N[C@@H](Cc3ccc5ccccc5c3)C(=O)NC(C)(C)C(=O)N[C@H](C(=O)N[C@@H](CO)C(=O)N[C@@H](Cc3c[nH]cn3)C(N)=O)CCC(=O)NCCCCC(=O)N4)c[nH]c12 [compound 43] ([Ava]CNT[Trp(7-Me)]QCY(Me2NCH2CH2)[2Nal][Aib]ESH-NH2; disulfide 2-7; lactam N-11)	remaining at 2 h, 1 µM	%	72
COc1ccc(C[C@@H]2NC(=O)[C@@H]3CSSC[C@H](NC(=O)CCC(=O)NCCCC[C@@H](C(=O)N[C@@H](CC(N)=O)C(=O)N[C@@H](CC(N)=O)C(N)=O)NC(=O)C(C)(C)NC(=O)[C@H](Cc4ccc5ccccc5c4)NC2=O)C(=O)N[C@@H](CC(N)=O)C(=O)N[C@@H]([C@@H](C)O)C(=O)N[C@@H](Cc2c[nH]c4ccccc24)C(=O)N[C@@H](CCC(N)=O)C(=O)N3)cc1	remaining at 2 h, 1 µM	%	76
CC(=O)N[C@H]1CCCCNC(=O)[C@@H]2CSSC[C@H](NC(=O)[C@H](CC(C)C)NC(=O)[C@H](Cc3c[nH]c4c(C)cccc34)NC1=O)C(=O)N[C@@H](Cc1ccc(OCCN(C)C)cc1)C(=O)N[C@@H](Cc1ccc3ccccc3c1)C(=O)N[C@@](C)(CC(C)C)C(=O)N[C@H](C(=O)N[C@@H](CC(N)=O)C(=O)N[C@@H](Cc1cccnc1)C(=O)N(C)CC(N)=O)CCCCN(C)C(=O)CCC(=O)N2C [compound 69] (Ac-K[Trp(7-Me)]LCY(Me2NCH2CH2)[2Nal][αMeL][Lys(Me)]N[3Pal][Sar]-NH2; linker 1-4-8 via X5)	remaining at 2 h, 1 µM	%	89
COc1ccc(C[C@@H]2NC(=O)[C@@H]3CSSC[C@H](NC(=O)CCCCCNC(=O)CC[C@@H](C(=O)N[C@@H](CC(N)=O)C(=O)N[C@@H](CC(N)=O)C(N)=O)NC(=O)C(C)(C)NC(=O)[C@H](Cc4ccc5ccccc5c4)NC2=O)C(=O)N[C@@H](CC(N)=O)C(=O)N[C@@H]([C@@H](C)O)C(=O)N[C@@H](Cc2c[nH]c4ccccc24)C(=O)N[C@@H](CCC(N)=O)C(=O)N3)cc1 [compound 2] ([Ahx]CNTWQCY(Me)[2Nal][Aib]ENN-NH2; disulfide 2-7; lactam N-11)	remaining at 2 h, 1 µM	%	71

Consider the record given below.
// lookup remaining at 2 h, 1 µM | system=Pancreatin | key= CC(=O)NCCCC[C@@H]1NC(=O)[C@H](Cc2c[nH]c3c(C)cccc23)NC(=O)[C@@H](NC(C)=O)CCCCNC(=O)[C@@H]2CSSC[C@H](NC1=O)C(=O)N[C@@H](Cc1ccc(OCCN(C)C)cc1)C(=O)N[C@@H](Cc1ccc3ccccc3c1)C(=O)N[C@@](C)(CC(C)C)C(=O)N[C@H](C(=O)N[C@@H](CC(N)=O)C(=O)N[C@@H](Cc1cccnc1)C(=O)N(C)CC(N)=O)CCCCNC(=O)CCC(=O)N2 [compound 106] (Ac-K[Trp(7-Me)]K(Ac)CY(Me2NCH2CH2)[2Nal][αMeL]KN[3Pal][Sar]-NH2; linker 1-4-8 via X6) 76
